System: NCI-H226 lung
Test: NCI-60 one-dose screen, 48 h (100 = growth as untreated, 0 = no growth, -100 = all killed)
Details: 10 µM unless noted
Experimental: Growth inhibition of the NCI-H226 human Non-Small Cell Lung tumor cell line is measured as a screen for anti-cancer activity. Cells are grown in 96 well plates and exposed to the test compound for 48 hours. Compounds are tested at a single concentration, which is 10^-5 M for most compounds. The reported endpoint is percent growth (GI% or GIPRCNT), where numbers from 0 - 100% represent growth inhibition, and numbers from -100% - 0 represent cell death. […]
Compounds without any hit were thinned out: in the full panel of roughly 83,000, 20% have a hit. Activity calls are given as the source filed them. How the source made its calls: active means growth percent below 10; inactive means the rest.
As shown below, each of these compounds has a reported growth value.

# compound, measured on, growth
data = [
    ("Fc1ccc2c(c1)c(-c1nc(-c3c[nH]c4ncccc34)cs1)cn2CCN1CCOCC1", "NCI-H226 lung", "49.2% (inactive)"),
    ("C=CCn1cc(C=C2C(=O)N(C)C(=O)N(C)C2=O)c2ccccc21", "NCI-H226 lung", "-47.6% (active)"),
    ("COC(=O)[C@@H](C)C[C@H](Cc1ccccc1)NC(=O)c1nc([C@@H](C[C@H](C(C)C)N(C)C(=O)[C@@H](NC(=O)[C@H]2CCCCN2C)C(C)C)OC(C)=O)sc1C(C)C", "NCI-H226 lung", "52.4% (inactive)"),
    ("Cc1ccc2c(C(C[N+](=O)[O-])c3cccs3)c(-c3ccccc3)[nH]c2c1 (centres undefined)", "NCI-H226 lung", "46.4% (inactive)"),
]
